Reported pKd values for a set of binders
experimental.system: T1, sRAGE (V-C1-C2) lot LP08062 (human, UniProt Q15109 23-342)
T1 construct: extracellular domain; also called Human RAGE; LP08062 (Rage)
T1 sequence (Q15109 23-342): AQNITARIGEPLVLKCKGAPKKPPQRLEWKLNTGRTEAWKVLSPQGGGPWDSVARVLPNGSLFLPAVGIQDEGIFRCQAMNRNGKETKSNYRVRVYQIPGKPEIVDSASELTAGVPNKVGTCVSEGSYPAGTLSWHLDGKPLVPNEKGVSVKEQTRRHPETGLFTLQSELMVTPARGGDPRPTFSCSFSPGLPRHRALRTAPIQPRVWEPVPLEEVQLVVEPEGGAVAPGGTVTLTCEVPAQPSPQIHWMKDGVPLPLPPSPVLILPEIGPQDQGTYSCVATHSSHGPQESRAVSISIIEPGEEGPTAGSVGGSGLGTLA
measurement.description: SPR (Biacore), mAb captured on anti-mouse Fc, sRAGE 15 nM, 1:1 Langmuir
Lab note — pKd values are minus log10 of concentrations in M.

Record excerpt, results attached:
130 RAGE-1 (antibody, V domains shown, Hybridoma monoclonal antibody, captured on anti-mouse Fc in Biacore; also called Protein 130 RAGE-1) VH: EVQLVESGGGLVKPGGSLKLSCAASGFTFSSYVMSWVRQSPEKRLEWVAEISSGGSYTYYPDTVTGRFTISRDNDKNTLYLEMSSLRSEDTAMYYCARPPYGKDAMDYWGQGTSVTVSS VL: QIVLTQSPAIMSASPGEKVTMTCSASSSVSYMHWYQQKSGTSPKRWISDTSKLASGVPARFSGSGSGTSYSLTISSMEAEDAATYYCQQWSSNPPTFGGGTKLEIK: 9.63
95 RAGE-1 (antibody, V domains shown, Hybridoma monoclonal antibody, captured on anti-mouse Fc in Biacore; also called Protein 95 RAGE-1) VH: QVQLQQPGAELVKPGASVKLSCKASGYTFTSYWMHWVKQRPGQGLEWIGESNPSNGRTNYNEKFKNKATLTVDKSSSTAYMQLSSLTSEDSAVYYCARAPYYGFDYWGQGTTLTVSS VL: QAVVTQESALTTSPGETVTLTCRSSTGAVTTSNYANWVQEKPDHLFTGLTGGTNNRAPGVPARFSGSLIGDKAALTITGAQTEDEAIYFCALWYSNHWVFGGGTKLTVL: 9.34
56 RAGE-1 (antibody, V domains shown, Hybridoma monoclonal antibody, captured on anti-mouse Fc in Biacore; also called LP08103; Protein 56 RAGE-1) VH: QVQLQQSGPELVKPGASVRISCKASGYTFTSYFIHWVKQRPGQGLEWIGWIYPGNVNTKYNEKFKDKATLTADKSSSTAYMQLSNLTSEDSAVYFCVRGQLGDYWGQGITLTVSS VL: DIVMTQSQKFMSTSVGDRVSVTCKASQNVGINVAWYQQKPGQSPKALIYSASYRYSGVPDRFTGSGSGTDFTLIISNVQSEDLAEYFCQQYNNYPRTFGGGTKLEIK: 8.73
140 RAGE-1 (antibody, V domains shown, Hybridoma monoclonal antibody, captured on anti-mouse Fc in Biacore; also called Protein 140 RAGE-1) VH: QVQLQQPGAELVKPGASVRLSCKASGYTFTSYWMHWVKQRPGQGLEWIGEINPSNGRTNYNEKFKSKATLTVDKSSSTAYMQLSSLTSEDSAVYYCARDGLGYRPIAMDYWGQGTSVTVSS VL: QIVLTQSPAIMSASPGEKVTISCSASSSVSYMYWYQQKPGSSPKPWIYRTSNLASGVPARFSGSGSGTSYSLTISSMEAEDAATYYCQQYHSYPPMYTFGGGTKLEIK: 9.52

// query pKd value for entry 152 RAGE-1 (antibody, V domains shown, Hybridoma monoclonal antibody, captured on anti-mouse Fc in Biacore; also called LP08104; Protein 152 RAGE-1) VH: DVQLQESGPDLVKPSQSLSLTCTVTGYSITSGYSWHWIRQFPGNKLEWMGYIHYSGSTNYNPSLKSRISITRDTSKNQFFLQLNSVTTEDTATYYCARGGDFAYWGQGTLVTVSA VL: DIVLTQSPASLAVSLGQRATISCRASKSVGTSDSSYMHWYQQKPGQPPKLLIYLASNLESGVPARFSGSGSGTDFTLNIHPVEEEDAATYYCQHSRELYTFGGGTKLEIK
9.16
